System: Staphylococcus aureus
Experiment: Antibacterial activity against Staphylococcus aureus ATCC 25923 assessed as reduction in bacterial growth
Format: functional
Recorded log10 of MIC, one value per entry.
value-type: log10 of MIC (log10 of the value in µg/mL)

>  <chemical-smiles>
Cn1cc(CN2CCN(Cc3ccc(C(F)(F)F)cc3N3CCCC3)CC2)c2cc([N+](=O)[O-])ccc21

>  <log10 of MIC>
2.11

$$$$
>  <chemical-smiles>
Cn1cc(CN2CCN(Cc3ccc(C(F)(F)F)cc3N3CCCC3)CC2)c2cc(Cl)ccc21

>  <log10 of MIC>
1.51

$$$$
>  <chemical-smiles>
Cn1cc(CN2CCN(Cc3ccc(C(F)(F)F)cc3N3CCCC3)CC2)c2cc(F)ccc21

>  <log10 of MIC>
0.90

$$$$
>  <chemical-smiles>
Fc1ccc2[nH]cc(CN3CCN(Cc4ccc(Cl)cc4Cl)CC3)c2c1

>  <log10 of MIC>
0.90

$$$$
>  <chemical-smiles>
COc1ccc2[nH]cc(CN3CCN(Cc4ccc(C(F)(F)F)cc4N4CCCC4)CC3)c2c1

>  <log10 of MIC>
1.20

$$$$
>  <chemical-smiles>
N#Cc1ccc2[nH]cc(CN3CCN(Cc4ccc(Cl)cc4Cl)CC3)c2c1

>  <log10 of MIC>
1.20

$$$$
>  <chemical-smiles>
CO[C@H]1/C=C/O[C@@]2(C)Oc3c(C)c(O)c4c(O)c(c(/C=N/N5CCN(C)CC5)c(O)c4c3C2=O)NC(=O)/C(C)=C\C=C\[C@H](C)[C@H](O)[C@@H](C)[C@@H](O)[C@@H](C)[C@H](OC(C)=O)[C@@H]1C

>  <log10 of MIC>
-0.60

$$$$
>  <chemical-smiles>
Clc1ccc(CN2CCN(Cc3c[nH]c4ccc(Cl)cc34)CC2)c(Cl)c1

>  <log10 of MIC>
0.90

$$$$
>  <chemical-smiles>
Cn1cc(CN2CCN(Cc3ccc(Cl)cc3Cl)CC2)c2cc(Br)ccc21

>  <log10 of MIC>
0.90

$$$$

* * *

Test system: Staphylococcus aureus
Assay: Antibacterial activity against Staphylococcus aureus ATCC 25923 assessed as reduction in bacterial growth
Type: functional
value-type: MIC (µg/mL)

>  <chemical-smiles>
N#Cc1ccc2[nH]cc(CN3CCN(Cc4ccc(C(F)(F)F)cc4N4CCCC4)CC3)c2c1

>  <endpoint-value>
16

$$$$
>  <chemical-smiles>
Cn1cc(CN2CCN(Cc3ccc(C(F)(F)F)cc3N3CCCC3)CC2)c2cc(C#N)ccc21

>  <endpoint-value>
16

$$$$
>  <chemical-smiles>
O=[N+]([O-])c1ccc2[nH]cc(CN3CCN(Cc4ccc(C(F)(F)F)cc4N4CCCC4)CC3)c2c1

>  <endpoint-value>
16

$$$$
>  <chemical-smiles>
Cn1cc(CN2CCN(Cc3ccc(Cl)cc3Cl)CC2)c2cc(C#N)ccc21

>  <endpoint-value>
8

$$$$
>  <chemical-smiles>
O=C(O)c1cn(C2CC2)c2cc(N3CCNCC3)c(F)cc2c1=O

>  <endpoint-value>
0.5

$$$$

* * *

System: Staphylococcus aureus
Assay: Antibacterial activity against Staphylococcus aureus ATCC 25923 assessed as reduction in bacterial growth
Format: functional
value-type: MIC (µg/mL)

>  <chemical-smiles>
FC(F)(F)c1ccc(CN2CCN(Cc3c[nH]c4ccc(Br)cc34)CC2)c(N2CCCC2)c1

>  <value-type>
MIC

>  <result-unit>
µg/mL

>  <endpoint-value>
8

$$$$
>  <chemical-smiles>
Cn1cc(CN2CCN(Cc3ccc(Cl)cc3Cl)CC2)c2cc(F)ccc21

>  <value-type>
MIC

>  <result-unit>
µg/mL

>  <endpoint-value>
8

$$$$
>  <chemical-smiles>
Cn1cc(CN2CCN(Cc3ccc(C(F)(F)F)cc3N3CCCC3)CC2)c2cc(Br)ccc21

>  <value-type>
MIC

>  <result-unit>
µg/mL

>  <endpoint-value>
16

$$$$
>  <chemical-smiles>
Fc1ccc2[nH]cc(CN3CCN(Cc4ccc(C(F)(F)F)cc4N4CCCC4)CC3)c2c1

>  <value-type>
MIC

>  <result-unit>
µg/mL

>  <endpoint-value>
16

$$$$
